assay: inhibitors of intracellular T. cruzi growth, primary screen, luminescence, NIH3T3 host cells (AID 1885);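 also: signal also drops with host cell toxicity which is not excluded here; 0% = plate median of DMSO wells and 100% = zero luminescence signal; higher percent means less beta-gal luminescence so fewer parasites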; details: T. cruzi beta-gal in NIH3T3, luminescence, 90 h; active compounds read high; concentration not given here
Among all 300,000 compounds or so, about 4,400 (1.5%) were called active. The entries come from a sample that favours actives as a whole.
measurement-type: inhibition (%)
Could you give me the number in %? Just the number is fine.

# compound, inhibition / %
data = [
    ("Fc1ccccc1COc1cccc2cccnc12", -0.777),
    ("COc1cccc(CNCCc2c[nH]c3ccccc23)c1OCc1ccccc1F", 39.3),
    ("CC(=O)Nc1nc2ccccc2n1Cc1ccc(C)cc1", 79.7),
    ("CC(=O)c1nc2ccccc2n1Cc1ccccc1", 8),
    ("Cc1sc2ncnc(N3CCC(C(=O)Nc4nc5ccc(Cl)cc5s4)CC3)c2c1C", 27),
    ("CC1CN(S(=O)(=O)c2ccc(C(=O)NN3CCN(C)CC3)cc2)CC(C)O1 (stereo not drawn)", 6.61),
    ("COc1ccc(C2CC(=O)Oc3ccc(C(C)(C)C)cc32)cc1 (stereo not drawn)", -9.82),
    ("CC(Oc1ccccc1[N+](=O)[O-])C(=O)N/N=C/c1ccoc1 (stereo not drawn)", -8.31),
    ("O=C(NC1CCCCC1)C1CC(=O)N(CCc2ccccc2)C1 (stereo not drawn)", -16.2),
    ("CCCCCCc1ccc(O)cc1O", 63.7),
]

Challenge: Item `O=C(CCCN1C(=O)/C(=C\c2ccco2)SC1=S)Nc1cccc2ccccc12` has what recorded inhibition?
Response given: -4.25

Challenge: Item CCC(Oc1ccccc1)C(=O)NCc1cccnc1 (stereo not drawn) has what recorded inhibition?
Response given: -4.42

Challenge: Item `CCCCCCc1cc2cc(-c3nnc(-c4ccccc4)o3)c(=O)oc2cc1O` has what recorded inhibition?
Response given: 0.529

Challenge: Item CCOC(=O)CC1C(=O)NCCN1c1nc2c(C)cccn2c(=O)c1/C=C1\SC(=S)N(C(C)CC)C1=O (stereo not drawn) has what recorded inhibition?
Response given: 25.7

Challenge: Item `Cc1ccccc1Nc1nc(N)nc(CSc2ccccc2)n1` has what recorded inhibition?
Response given: 4.95

Challenge: Item `O=C(C1=C[C@H](c2coc3ccccc3c2=O)C[C@H](OCc2ccc(CO)cc2)O1)N1CCN(Cc2ccccc2)CC1` has what recorded inhibition?
Response given: 33.6

Challenge: Item `COc1cc(C(=O)NNC(=O)c2ccc(S(=O)(=O)N3CCCCC3)cc2)cc(OC)c1OC` has what recorded inhibition?
Response given: -12.8

Challenge: Item `O=C(C1=C[C@H](C2CC2)C[C@H](OCc2ccc(CO)cc2)O1)N1CCN(Cc2ccccc2)CC1` has what recorded inhibition?
Response given: 59.7

Challenge: Item `C=CCOc1cccc(CNCc2cccnc2)c1` has what recorded inhibition?
Response given: 17.4

Challenge: Item `FC(F)(F)c1cccc(-c2nc(COc3ccc(Cl)cc3Cl)no2)c1` has what recorded inhibition?
Response given: 1.05

Challenge: Item `Fc1ccccc1COc1ccccc1CNCc1ccncc1` has what recorded inhibition?
Response given: 65.1

Challenge: Item `CN1CCN(NC(=O)c2ccc(S(=O)(=O)N3CCCCCC3)cc2)CC1` has what recorded inhibition?
Response given: 68.3

Challenge: Item `Cc1nn(C)c(C)c1CN(C(=O)CCc1nnc(Cc2c[nH]c3ccccc23)o1)C(C)C` has what recorded inhibition?
Response given: 9.23
